- Measured on: Nuclear receptor subfamily 1 group I member 3 (Homo sapiens) (UniProt Q14994)
- Sequence (Q14994 whole entry, looked up): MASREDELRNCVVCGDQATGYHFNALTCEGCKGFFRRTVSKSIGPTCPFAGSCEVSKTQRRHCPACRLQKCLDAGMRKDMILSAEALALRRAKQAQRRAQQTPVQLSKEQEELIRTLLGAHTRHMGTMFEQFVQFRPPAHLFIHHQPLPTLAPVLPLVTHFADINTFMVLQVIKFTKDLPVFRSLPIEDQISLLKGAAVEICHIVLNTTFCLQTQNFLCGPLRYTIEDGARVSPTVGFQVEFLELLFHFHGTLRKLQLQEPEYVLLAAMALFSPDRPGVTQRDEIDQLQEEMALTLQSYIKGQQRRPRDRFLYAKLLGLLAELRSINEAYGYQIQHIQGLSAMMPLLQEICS
- Experiment: qHTS assay to identify small molecule agonists of the constitutive androstane receptor (CAR) signaling pathway (AID 1224839);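 note: HepG2 cells stably carrying human CAR and a CYP2B6 luciferase reporter; nearly all actives have a fitted effect of over 15% in size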
- Test context: HepG2 hCAR CYP2B6-luciferase, agonist mode, 24 h; series mostly up to 92.4 µM
- Excerpt: National Center for Advancing Translational Sciences [NCATS] NIH Chemical Genomics Center [NCGC] U.S. Environmental Protection Agency [EPA] National Institutes of Environmental Health Sciences [NIEHS] National Toxicology Program [NTP] […] Assay Protocol Summary: A double-stable (hCAR and CYP2B6-2.2kb) transfected cell line, derived from human hepatoma (HepG2) cells, was utilized for the duration of the quantitative high-throughput screens. […]
Inconclusive results are not listed. Calls of active or inactive are those of the source. Calls come from the whole dose curve; as a rule, active = well fitted activation curve with a large enough effect in the repeat runs; inconclusive = weak or mixed curves; inactive = no such curve, though single readings can be large or run the other way.
I would appreciate it if you answered using one of these outcomes: 1 (yes) = active, 0 (no) = inactive

Check out these entries, answers already filled in.
Kindly provide the recorded test outcome for the following compound: C=CCCCCCC 0 (no)

Kindly provide the recorded test outcome for the following compound: CC(C)(C)c1cc(CCC(=O)OCC(COC(=O)CCc2cc(C(C)(C)C)c(O)c(C(C)(C)C)c2)(COC(=O)CCc2cc(C(C)(C)C)c(O)c(C(C)(C)C)c2)COC(=O)CCc2cc(C(C)(C)C)c(O)c(C(C)(C)C)c2)cc(C(C)(C)C)c1O 0 (no)

Kindly provide the recorded test outcome for the following compound: O=C1c2cccc(O)c2C(=O)c2c(O)cc(CO)cc21 0 (no)

Kindly provide the recorded test outcome for the following compound: O=C=NC1CCC(CC2CCC(N=C=O)CC2)CC1 (centres undefined) 0 (no)

Others:
Kindly provide the recorded test outcome for the following compound: CC(=O)OC/C=C/c1ccccc1 0 (no)

Kindly provide the recorded test outcome for the following compound: CC(=O)OCCc1ccccc1 0 (no)

Kindly provide the recorded test outcome for the following compound: OCC1CC2CC1C1CCC(CO)C21 (centres undefined) 0 (no)

Kindly provide the recorded test outcome for the following compound: CCCCC(CC)(CO)CO 0 (no)

Kindly provide the recorded test outcome for the following compound: O=C(Nc1ccccc1)OCC(CN1CCCCC1)OC(=O)Nc1ccccc1 (centres undefined) 0 (no)

Kindly provide the recorded test outcome for the following compound: CC(=O)O[C@H]1C[C@@H]2CC[C@@H]3[C@H](CC[C@@]4(C)[C@H]3C[C@H]([N+]3(C)CCCCC3)[C@@H]4OC(C)=O)[C@@]2(C)C[C@@H]1N1CCCCC1 0 (no)
